experiment: yeast display, Sf9 membrane polyspecificity reagent, FACS + sequencing; frameworks hold sequencing errors

BIOSEQUENCE: QVQLVESGGGLVQAGGSLRLSCAASGRIFWGYAMGWYRQAPGKERELVARITSGGDTYYADSVKGRFTISRDNAKNTVYLQMNSLKPEDTAVYYCAISTAVKPYAYRESGFIYDYWGQGSQVTVSS
polyreactivity (PSR sort gate): low polyreactivity

BIOSEQUENCE: QVQLVESGGGLVQAGGSLRLSCAASGRTFYYYAMGWYRQAPGKERELVADITYSGGSTYYADSVKGRFTISRDNAKNTVYLQMNSLKPEDTAVYYCAARVTVSHWPYYYDSYDYWGQGTQVTVSS
polyreactivity (PSR sort gate): low polyreactivity

###

experiment: yeast display, Sf9 membrane polyspecificity reagent, FACS + sequencing; frameworks hold sequencing errors

BIOSEQUENCE: QVQLVESGGGLVQAGGSLRLSCADSGYIFEVYAMGWYRPAPGKERELVAAIDYSDGTTYYADSVKGRFTISRDNAKNTVYLQMNSLKPEDTAVYYCAADFPGQHYDYWGQGTQVTVSS
polyreactivity (PSR sort gate): low polyreactivity
--
BIOSEQUENCE: QVQLVESGGGLVQAGGSLRLSCAASGSTFNVNAMGWYRQSPGKERELVAAITSSGGSTNYADSVKGRFTFSRDNAKYTVYLQMNSLNPEDTAFYYCAAYAIYFSRLNLGYDYWGQGTQVTVSS
polyreactivity (PSR sort gate): low polyreactivity
--
BIOSEQUENCE: QVQLVESGGGLVQAGGSLRLSCAASGRILYGNAMGWYRKAPGKERELVAAITRRGGSTYYADSVKGRFTISRDNAKNTVYLQMNSLKPEDTAVYYCNKVVGYRDTDFDYWGQGTQVTVSS
polyreactivity (PSR sort gate): high polyreactivity
--
BIOSEQUENCE: QVQLVESGGGLVQAGGSLRLSCAASGGIFVTYAMGWYRKAPGKERELLAAISANGGDTYYADSVKGRFTISRDNAKTSVYLQMNRLKPEDTAVYYCAADGFLPILHPVPWSYYYPFGYWGQGTHVTVSS
polyreactivity (PSR sort gate): low polyreactivity
--
BIOSEQUENCE: QVQLVESGGGLVQAGGSLRLSCPASGSIFPHYAMGWYRQAPGKERELVAAISRSGTSTYYADSVKGRFTISRDNAKNTVYLQMNSLKPEDTAVYYCNAYQVYTRTYGYWGQGTQVTVSS
polyreactivity (PSR sort gate): high polyreactivity
--
BIOSEQUENCE: QVQLVESGGGLVQAGGSLRLSCAASGSIFSLYVMGWYRQAPGKERELGAAITSGGRTNYADSVKGRFTISRDNAKNTVYLLMNSLKPEDTAVYDCAARFPSRYGRYGYWGQGTQVTVSS
polyreactivity (PSR sort gate): high polyreactivity
--
BIOSEQUENCE: QVQLVESGGGLVQAGGSLRLSCAASGSTFFIYAMGWYRQAPGKERELVAAISWRDGSTYYADSVKGRFTISRDNAKNTVYLQMNSLKPEDTAVYYCAADYLLPWGIELDYWGQGTQVTVSS
polyreactivity (PSR sort gate): high polyreactivity
--
BIOSEQUENCE: QLQLVESGGGLVQAGGSLRLSCAASGSIFVTYAMGWYSQAPGKEMELVAAINYSGGSTYYADSVTGRFTISRDNAKNTVYLQMNSLKPEATAVYYCAAAVAVFSFDYPHYYEYEYWGQGTQVTVSS
polyreactivity (PSR sort gate): low polyreactivity
--
BIOSEQUENCE: QVQLVESGGGLVQAGGSLRLSCAASGRTFSQYAMGWYRQAPGKERELVAAITSAGSTYYADSVKGRFTISRDNAKNTVYLQMKSLKPEDTAVYYCNARGPSRYTGYSSYYWGQGTQVTVSS
polyreactivity (PSR sort gate): high polyreactivity
--
BIOSEQUENCE: QVQLVESGGCLVQAGGSLRLSCAASGSIFDSNPKGWYRQAPGKERELVAAITGSGTSTYYADSVKGRFTISRDNAKNTVYLQMNSLKPEDTALNYCAAAPEYLTDHDYWGQGTQVTVSS
polyreactivity (PSR sort gate): low polyreactivity
--
BIOSEQUENCE: QVQLVESGGGLVQAGGSLRLSCAASGRTFTGNAMGWYRQAPGKERELVAAISTSGTRTSYADSVKGRFTISRDNAKNTVYLQMNSLKPEDTAVYYCAALRKSLYRTYTYDYWGQGTQVTVSS
polyreactivity (PSR sort gate): high polyreactivity
--
BIOSEQUENCE: PVQLVESGGGLVQAGGSLRLSCDAYGSIFAYNAMGWYRQAPGKERELVAAISVSDGITYYADSVKGRFTISRDNAKNTVYLQMISLKPEDTAVYYCPARTRGPSRAYDYWGQGTQGTVSS
polyreactivity (PSR sort gate): low polyreactivity
--
BIOSEQUENCE: QVQLVDSGGGLVQAGGSLRLSCAASGSTFDGNTMGWYRQAPGKERELVATITNSGGNTYYADSVKGRFTISRDNAKNTVYLQMNSLKPEDTAVYYCNARRTSWRRLGNFYYWGQGTQVTVSS
polyreactivity (PSR sort gate): high polyreactivity
--
BIOSEQUENCE: QDQLVDSGGGLVQAGGSLSLSCAASGISFYGNAMAWYRPAPGKERELVAAITSGGSTNYADSVKGRFTISRDNAKNTVYLQLYSLKPEDTAVYYCAVSYVSTLRRSRYDYWGQGTQVTVSS
polyreactivity (PSR sort gate): low polyreactivity
--
BIOSEQUENCE: QVQLVESGGGLVQAGGSLRLSCAASGYTFVIYAMGSYRQAPGKERELVAAITTIGGRTYYADSVKGRFTISRDNAKNTVYLQMNSLKPEDTAVYYCAADIRSNRLYDGGYWGLGTQVTVSS
polyreactivity (PSR sort gate): low polyreactivity
--
BIOSEQUENCE: QVQLVESGGGLVQAGGSLRLSCAASGSISYVNAMGWYRQAPGKERELVAAITGGGSTNYADSVKGRFTISRDNAKNTVYLQMNSLKPEDTAVYYCNSGDSTGEVIGDYWGQGTQVTVSS
polyreactivity (PSR sort gate): low polyreactivity
--
BIOSEQUENCE: QVQLVESGGGLVQAGGSLRLSCAASGSISTYYAMGWYRPAPGKERDLVAAISKSGGSKYYADSVKGRFTISRDNAKNTVYLQMNSLKPEDTAVYYCAARYKGRAFWMDYWGQGTQVTVSS
polyreactivity (PSR sort gate): high polyreactivity
--
BIOSEQUENCE: QVQLVESGGGLVQAGGSLRLSCAASGSIFYWYAMGWYSQAPGKERELVAAIDISDDTYYADSVKGRFTISRDNAKNTVYLQMNSLKPEDTAGYYCAARTTRWFYEYDWGQGSQVTVSS
polyreactivity (PSR sort gate): high polyreactivity
--
BIOSEQUENCE: QVQLVESAGGLVQAGGSHRLSCAASGFIFDSYAMGCYRPAPGKERELVAAITYSGSSTYYADSVKGRFTISRDNAKNTVYLQMNSLKPEDTGVYYCAAVWRYSHLYGYWGQGTQVTVSS
polyreactivity (PSR sort gate): high polyreactivity
--
BIOSEQUENCE: QVQLVESGGGLVQAGGSLRLSCAASGSTFGVNAMGWYRQAPGKERELVAAIRWSDGSTYYADSVKGRFTISRDNAKNTVYLQMNSLKPEDTAVYYCNTDLTVYFPVEYWGQGTQVTVSS
polyreactivity (PSR sort gate): low polyreactivity
--
BIOSEQUENCE: QVQLVESGGGLVQAGGSLRLSCAASGRIYGANTMGWYRQAPGKERELVAAISWRGTSTYADSVKGRFSISRDNAKNTVYLQMNSLKPEDTAVYYCAARRRGWPQFDYWGQGTQVTVSS
polyreactivity (PSR sort gate): high polyreactivity

Where do these numbers come from? They come from the nanobody polyreactivity screen of Harvey et al. (2022).
